Data provenance: the OPERA property sets (Mansouri et al. 2018)

Listing of recorded log10 OH rate constant (cm³/molecule/s) by entry.
details: 25.0 °C
PARAMETER MEASURED: log10 OH rate constant (cm³/molecule/s)

CCCCl : -12
CCCCCCCl : -11.4
CC(F)(Cl)Cl : -14.2
FC(F)(Cl)C(Cl)Cl : -13.3
CC(C)OCCO : -10.7
FCOC(C(F)(F)F)C(F)(F)F : -13.1
c1ccc2c(c1)oc1ccccc12 : -11.4
OCCOCCO : -10.5
C1CN2CCN1CC2 : -10.7
O=CC(Cl)(Cl)Cl : -11.8
CCOCCOCC : -10.2
CCC(CC)(CC)CC : -11.3
CC(=O)C=CC=O : -10.3
CC(=O)C(C)C : -11.5
O=CC(F)F : -11.8
COC(=O)OC : -12.5
FC(F)(F)C(F)(F)N(C(F)(F)C(F)(F)F)C(F)(F)C(F)(F)F : < -15.2
FC1(F)OC(F)(F)C1(F)F : < -15.7
O=CF : -14.4
COc1ccc([N+](=O)[O-])cc1 : -11.6
c1ccc2cc3ccccc3cc2c1 : -9.96
FC(F)C(F)(F)OCC(F)(F)F : -13
CSC(=O)N(C)C : -10.9
CCCC(=O)O : -11.6
O=CC(Cl)Cl : -11.6
CCOC(F)(F)C(F)F : -12.6
CCCCBr : -11.6
FC(F)OC(F)C(F)(F)F (configuration not stated) : -14.4
CC(=O)CCC(C)C : -11
COC(=O)CCCCC(=O)OC : -11.1
CCSC(=O)N(CC)C1CCCCC1 : -10.5
C[Se]C : -10.2

----------
Listing of recorded log10 OH rate constant (cm³/molecule/s) by entry.
settings: 24.0 °C
PARAMETER MEASURED: log10 OH rate constant (cm³/molecule/s)

c1ccc2c(c1)sc1ccccc12 : -11.1
C[Si]1(C)O[Si](C)(C)O[Si](C)(C)O1 : -12.3
C[Si](C)(C)C : -12
CCOCCC(=O)OCC : -10.6
C[Si](C)(C)O[Si](C)(C)C : -11.9
COc1ccccc1OC : -10.5

----------
PARAMETER MEASURED: logP

CN(C)C(=O)COC(=O)c1ccccc1O : 1.21
CCCCCCCCOC(=O)c1ccccc1C(=O)OCCCCCCCC : 8.1
CC(=O)OC(c1ccc(Cl)c(Cl)c1)C(Cl)(Cl)Cl (stereo unspecified) : 4.92
CN1CC=C(c2cccc(N)c2)CC1 : 1.47
O=c1ccn(C2OC(CO)C(O)C2O)c(=O)n1Cc1ccccc1 (stereo unspecified) : 0.33
COc1ccc(S(=O)(=O)c2coc(S(N)(=O)=O)c2)cc1 : 1.17
OCC1CC(F)C(n2cnc3c(Cl)ncnc32)O1 (stereo unspecified) : 0.32
Cn1c(CC(=O)O)cnc1C(=O)c1ccc([N+](=O)[O-])cc1 : 0.86
CCCCC[C@H](O)/C=C/[C@H]1[C@H](O)CC(=O)[C@@H]1CCCCCCC(=O)O : 3.2
CN(C)CCCN1c2ccccc2S(=O)c2ccc(Cl)cc21 (stereo unspecified) : 2.32
CCCCC(OC(Cc1ccccc1)C(=O)N1CCC(OCOC)CC1)C(=O)NC(CC1CCCCC1)C(O)CC(C(=O)NCCCNc1n[nH]c(N)n1)C(C)C (stereo unspecified) : 4.3
CCCCCOC(C)=O : 2.3
Clc1ccc2cccc(Cl)c2c1 : 4.56
Cc1c(O)c(=O)ccn1CCO : -1.1
COc1cccc(Nc2ccccc2C(=O)O)c1 : 4.31
NCCc1nc(-c2ccccc2)cs1 : 2.22
CC(C)NCc1ccccc1 : 1.83
COCC(C)OC(C)=O (stereo unspecified) : 0.56
O=[N+]([O-])c1c2ccccc2cc2ccccc12 : 4.78
CCCCC(=O)OCN1C(=O)NC(c2ccccc2)(c2ccccc2)C1=O : 3.9
CCCCn1cccc(O)c1=O : 1.18
COC(=O)C(c1ccccc1)C(C)C (stereo unspecified) : 3.33
N#CC(C#N)=Cc1ccco1 : 1.4
Cc1nc(N)nc(C(Cl)(Cl)Cl)n1 : 1.77
c1ccc(Cn2cncn2)cc1 : 0.92
CN(C)CCCN1c2cc(O)ccc2Sc2ccc(Cl)cc21 : 4.63
CC(=O)Nc1cc(NS(=O)(=O)C(F)(F)F)c(C)cc1C : 2.02
O=[N+]([O-])c1ccc2c(c1)-c1ccc([N+](=O)[O-])c3cccc-2c13 : 4.44
Cc1cc(OCCN(C)C)c(C(C)C)cc1O : 2.93
CCN(CC)CCCN=c1cc2n(-c3ccc(Cl)cc3)c3ccccc3nc-2cc1Nc1ccc(Cl)cc1 : 8.05
Clc1cc2c(cc1Cl)-c1cc(Cl)c(Cl)cc1-2 : 6.14
CCCC[N+](C)(CCCC)CCCC.[I-] : 0.26
CC(=O)Nc1ncc2ncn(COCCO)c2n1 : -1.33
S=C=Nc1ccc(I)cc1 : 4.22
O=S(=O)(C(Cl)(Cl)Cl)C(Cl)(Cl)Cl : 3.3
CCOc1cc(C=O)ccc1O : 1.58
Brc1ccc(O[Si]23OCCN(CCO2)CCO3)cc1 : 0.58
COc1ccc(C(OC(C)=O)C(Cl)(Cl)Cl)cc1 (stereo unspecified) : 3.72
COc1cccc(N=C=S)c1 : 3.68
C=CCC1(CC(C)O)C(=O)NC(=O)NC1=O (stereo unspecified) : -0.05
CCOC1OC2OC3(C)CCC4C(COC5OC(C(=O)O)C(O)C(O)C5O)CCC(C1C)C24OO3 (stereo unspecified) : 1.05
O=c1c(Cl)c(Cl)cnn1-c1ccccc1 : 2.09
CCCCCCOC(=O)c1cccnc1 : 3.51
COC(=O)c1ccccc1C(=O)OC : 1.6
CCCCCOC(=O)c1cccnc1 : 2.55
CCCC(C)CCC(C)=O (stereo unspecified) : 2.92
Cc1cccc2c1ccc1ccccc12 : 5.08
CNCCc1ccccn1 : 0.68
Cc1ccc2oc(N(N)CCC#N)nc2c1 : 1.48
CCCCc1ccc(Cn2cncn2)cc1 : 2.81
CC(C)Nc1nc(Cl)nc(NCCO)n1 : 0.78
